Measured IC50, listed per entry.
biological target: EGFR (human); conditions: a549
measurement_kind: IC50 (nM)

compound	measurement_kind	qual	measured_number
COc1cc2c(Oc3ccc(NS(=O)(=O)c4ccc(-c5cnn(C)c5)cc4)cc3F)ccnc2cc1OCCCN1CCN(C)CC1	IC50	>	10000
COc1cc2c(Oc3ccc(NC(=O)C4=C(C)N(C)C(c5ccccc5)C4=O)cc3F)ccnc2cc1OCCCN1CCOCC1 (stereo not drawn)	IC50	=	1190
COc1cc2c(Oc3ccc(NC(=O)C4=C(C)N(C)C(c5ccccc5)C4=O)cc3F)ccnc2cc1OCCCN1CCN(C)CC1 (stereo not drawn)	IC50	=	1240

* * *

molecular target: EGFR (human) (UniProt P00533); conditions: h1975
Sequence (P00533 whole entry, looked up): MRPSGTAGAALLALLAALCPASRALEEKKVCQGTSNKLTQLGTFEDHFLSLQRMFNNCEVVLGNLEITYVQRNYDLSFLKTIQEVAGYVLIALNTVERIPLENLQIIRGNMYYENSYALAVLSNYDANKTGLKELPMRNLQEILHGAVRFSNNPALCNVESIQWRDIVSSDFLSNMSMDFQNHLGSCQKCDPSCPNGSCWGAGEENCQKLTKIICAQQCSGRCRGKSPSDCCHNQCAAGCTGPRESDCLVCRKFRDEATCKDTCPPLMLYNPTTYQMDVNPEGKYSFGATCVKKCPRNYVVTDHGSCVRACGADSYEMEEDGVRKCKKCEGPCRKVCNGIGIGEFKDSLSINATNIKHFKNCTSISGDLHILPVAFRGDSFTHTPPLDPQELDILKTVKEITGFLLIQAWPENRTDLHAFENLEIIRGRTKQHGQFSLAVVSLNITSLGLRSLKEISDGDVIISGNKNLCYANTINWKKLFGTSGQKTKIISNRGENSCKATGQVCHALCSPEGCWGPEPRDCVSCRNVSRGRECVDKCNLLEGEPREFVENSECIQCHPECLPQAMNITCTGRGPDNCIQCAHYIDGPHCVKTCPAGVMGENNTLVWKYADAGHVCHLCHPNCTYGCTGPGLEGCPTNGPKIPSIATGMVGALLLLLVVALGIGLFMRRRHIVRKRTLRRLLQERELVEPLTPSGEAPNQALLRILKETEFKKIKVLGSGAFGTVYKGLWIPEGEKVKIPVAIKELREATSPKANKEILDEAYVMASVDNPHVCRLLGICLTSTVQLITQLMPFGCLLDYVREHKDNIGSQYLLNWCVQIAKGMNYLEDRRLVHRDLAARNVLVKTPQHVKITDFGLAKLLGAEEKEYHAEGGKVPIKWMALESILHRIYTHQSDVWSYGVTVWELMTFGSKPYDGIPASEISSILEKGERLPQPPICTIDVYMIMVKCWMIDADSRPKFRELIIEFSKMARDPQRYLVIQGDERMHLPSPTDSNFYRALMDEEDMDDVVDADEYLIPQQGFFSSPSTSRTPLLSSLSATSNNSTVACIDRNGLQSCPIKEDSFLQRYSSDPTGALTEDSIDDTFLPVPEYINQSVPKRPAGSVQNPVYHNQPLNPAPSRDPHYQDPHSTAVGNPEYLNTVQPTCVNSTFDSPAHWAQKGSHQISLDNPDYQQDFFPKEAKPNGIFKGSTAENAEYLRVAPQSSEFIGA
Measured IC50, listed per entry.
measurement_kind: IC50 (nM)

compound	qual	measured_number
COc1cc2c(Oc3ccc(NS(=O)(=O)c4ccc(-c5cnn(C)c5)cc4)cc3F)ccnc2cc1OCCCN1CCN(C)CC1	>	10000
COc1cc2c(Oc3ccc(NC(=O)C4=C(C)N(C)C(c5ccccc5)C4=O)cc3F)ccnc2cc1OCCCN1CCN(C)CC1 (stereo not drawn)	=	1060
COc1cc2c(Oc3ccc(NC(=O)C4=C(C)N(C)C(c5ccccc5)C4=O)cc3F)ccnc2cc1OCCCN1CCOCC1 (stereo not drawn)	=	1460

* * *

molecular target: EGFR (human) (UniProt P00533); conditions: hcc827
pIC50: −log10 of the molar value.
Measured pIC50, listed per entry.
measurement_kind: pIC50

compound	assayed_system	measurement_kind	measured_number
COc1cc2c(Oc3ccc(NC(=O)C4=C(C)N(C)C(c5ccccc5)C4=O)cc3F)ccnc2cc1OCCCN1CCN(C)CC1 (configuration not stated)	EGFR (human) (UniProt P00533)	pIC50	5.59
COc1cc2c(Oc3ccc(NC(=O)C4=C(C)N(C)C(c5ccccc5)C4=O)cc3F)ccnc2cc1OCCCN1CCOCC1 (configuration not stated)	EGFR (human) (UniProt P00533)	pIC50	5.60

* * *

Measured IC50, listed per entry.
biological target: EGFR (human), P00533 [L858R]
Sequence (P00533 whole entry L858R, looked up): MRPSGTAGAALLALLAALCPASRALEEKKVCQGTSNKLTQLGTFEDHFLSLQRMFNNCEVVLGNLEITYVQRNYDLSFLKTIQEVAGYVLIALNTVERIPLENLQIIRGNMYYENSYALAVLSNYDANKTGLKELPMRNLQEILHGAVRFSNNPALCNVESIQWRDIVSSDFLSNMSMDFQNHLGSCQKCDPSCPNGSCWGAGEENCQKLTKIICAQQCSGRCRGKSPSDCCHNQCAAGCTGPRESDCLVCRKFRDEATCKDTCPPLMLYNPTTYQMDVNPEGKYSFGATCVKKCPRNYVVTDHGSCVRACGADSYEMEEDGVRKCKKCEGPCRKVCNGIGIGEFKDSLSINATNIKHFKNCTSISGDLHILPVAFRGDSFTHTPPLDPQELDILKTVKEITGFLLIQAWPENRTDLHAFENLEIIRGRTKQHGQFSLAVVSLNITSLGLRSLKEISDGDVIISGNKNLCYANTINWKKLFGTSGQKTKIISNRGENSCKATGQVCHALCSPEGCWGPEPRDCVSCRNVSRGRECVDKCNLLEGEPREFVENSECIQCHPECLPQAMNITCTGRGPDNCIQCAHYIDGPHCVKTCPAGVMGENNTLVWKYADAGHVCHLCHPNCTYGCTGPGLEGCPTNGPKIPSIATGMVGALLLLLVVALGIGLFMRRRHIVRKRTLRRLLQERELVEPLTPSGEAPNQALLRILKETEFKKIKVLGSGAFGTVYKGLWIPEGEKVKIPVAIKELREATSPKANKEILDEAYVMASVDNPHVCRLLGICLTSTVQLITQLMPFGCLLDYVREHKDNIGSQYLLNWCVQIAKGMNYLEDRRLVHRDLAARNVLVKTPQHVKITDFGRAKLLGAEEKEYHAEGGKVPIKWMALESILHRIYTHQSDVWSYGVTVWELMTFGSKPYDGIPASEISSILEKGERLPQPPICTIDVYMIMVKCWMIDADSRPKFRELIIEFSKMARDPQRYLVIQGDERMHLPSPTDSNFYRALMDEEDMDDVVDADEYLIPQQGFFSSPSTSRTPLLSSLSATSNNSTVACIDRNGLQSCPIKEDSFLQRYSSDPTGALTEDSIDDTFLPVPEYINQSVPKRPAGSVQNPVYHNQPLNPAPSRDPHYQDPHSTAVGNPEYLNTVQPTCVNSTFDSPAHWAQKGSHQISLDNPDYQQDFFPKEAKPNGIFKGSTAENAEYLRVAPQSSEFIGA
measurement_kind: IC50

compound	assayed_system	result
COc1cc2c(Oc3ccc(NC(=O)C4=C(C)N(C)C(c5ccccc5)C4=O)cc3F)ccnc2cc1OCCCN1CCN(C)CC1 (configuration not stated)	EGFR (human), P00533 [L858R]	> 16 µM
COc1cc2c(Oc3ccc(NC(=O)C4=C(C)N(C)C(c5ccccc5)C4=O)cc3F)ccnc2cc1OCCCN1CCOCC1 (configuration not stated)	EGFR (human), P00533 [L858R]	> 16 µM
